# TARGET_SYSTEM: human mGluR5a receptor (Homo sapiens, UniProt P41594)
# Construct: cDNA subcloned into pcDNA3.1(-)
# Sequence (P41594 21-1180 isoform P41594-2 limits assumed): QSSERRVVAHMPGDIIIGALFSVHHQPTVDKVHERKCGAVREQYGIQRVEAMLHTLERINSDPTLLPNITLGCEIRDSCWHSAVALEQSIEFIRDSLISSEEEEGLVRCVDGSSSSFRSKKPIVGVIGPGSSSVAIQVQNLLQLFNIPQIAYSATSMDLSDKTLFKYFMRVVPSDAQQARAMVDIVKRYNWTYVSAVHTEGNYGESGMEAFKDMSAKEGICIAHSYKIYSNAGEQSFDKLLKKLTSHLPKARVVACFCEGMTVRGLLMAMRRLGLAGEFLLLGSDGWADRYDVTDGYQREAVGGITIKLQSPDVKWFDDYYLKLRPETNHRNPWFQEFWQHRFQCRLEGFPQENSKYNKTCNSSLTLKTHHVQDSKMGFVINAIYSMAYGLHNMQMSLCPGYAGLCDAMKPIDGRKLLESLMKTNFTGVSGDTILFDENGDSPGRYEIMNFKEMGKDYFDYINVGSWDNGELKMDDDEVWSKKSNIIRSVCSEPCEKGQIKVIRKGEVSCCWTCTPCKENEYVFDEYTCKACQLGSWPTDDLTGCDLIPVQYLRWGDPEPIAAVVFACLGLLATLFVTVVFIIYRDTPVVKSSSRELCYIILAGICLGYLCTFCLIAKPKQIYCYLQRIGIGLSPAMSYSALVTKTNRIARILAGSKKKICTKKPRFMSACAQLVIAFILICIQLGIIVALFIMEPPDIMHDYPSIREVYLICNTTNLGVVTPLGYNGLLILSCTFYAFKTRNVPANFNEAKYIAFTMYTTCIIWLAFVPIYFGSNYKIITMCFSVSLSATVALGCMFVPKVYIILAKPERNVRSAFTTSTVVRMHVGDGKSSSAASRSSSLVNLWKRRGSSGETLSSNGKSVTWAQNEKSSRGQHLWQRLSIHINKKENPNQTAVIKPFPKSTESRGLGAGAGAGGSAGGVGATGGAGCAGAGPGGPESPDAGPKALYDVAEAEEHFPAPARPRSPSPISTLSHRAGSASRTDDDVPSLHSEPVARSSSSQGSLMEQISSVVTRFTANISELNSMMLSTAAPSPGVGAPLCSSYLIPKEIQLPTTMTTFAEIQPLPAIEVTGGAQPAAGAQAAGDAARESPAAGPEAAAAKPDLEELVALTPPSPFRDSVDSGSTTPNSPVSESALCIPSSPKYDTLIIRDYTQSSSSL
# MEASUREMENT_PROTOCOL: Cell-based functional Ca2+ mobilization assay (FDSS), potentiation of glutamate EC20 response
# CONDITION_SUMMARY: HEK cells transfected with human mGluR5 (H10H or H12H); in presence of EC20 glutamate
METRIC_NAME: pEC50

COMPOUND	pEC50
O=C1c2cc(COc3ccccc3)nn2CCN1c1cccc(Cl)n1	7.40
Cc1ccnc(N2CCn3nc(COc4ccccc4)cc3C2=O)n1	5.81
COc1cccnc1N1CCn2nc(COc3ccccc3)cc2C1=O	5.66
CC1Cn2nc(COc3cccc(F)c3)cc2C(=O)N1c1ccc(F)cc1 (centres unmarked)	7.25
COc1nc(N2CCn3nc(COc4ccccc4)cc3C2=O)ccc1F	7.64
COCc1ccccc1N1CCn2nc(COc3ccccc3)cc2C1=O	6.37
Cc1ccc(N2CCn3nc(COc4ccccc4)cc3C2=O)nc1	6.68
O=C1c2cc(COc3ccccc3)nn2CCN1c1ccc(F)cn1	6.81
O=C1NCCn2nc(COc3ccccc3)cc21	5.65
O=C1c2cc(COc3ccc(F)cc3)nn2CCN1CC1CC1	6.58
COc1ccccc1N1CCn2nc(COc3ccccn3)cc2C1=O	5.97
O=C1c2cc(COc3ccccc3)nn2C(CO)CN1c1ccc(F)cc1 (racemic)	5.92
O=C1c2cc(COc3ccccc3)nn2CCN1c1ccncc1F	6.24
COc1ccc(F)c(N2CCn3nc(COc4ccccn4)cc3C2=O)n1	6.46
Cc1c(COc2ccccc2)nn2c1C(=O)N(c1ccc(F)cc1)CC2	6.05
CN(C)c1ccnc(N2CCn3nc(COc4ccccc4)cc3C2=O)n1	5.90
COc1cncc(N2CCn3nc(COc4ccc(F)cc4)cc3C2=O)n1	6.92
